assay: Rat telemetry protocol (core body temperature); format: in vivo; conditions: core body temperature of rats at one hour post dosing (100 μmol/kg, p.o.), relative to vehicle
We begin with a simple list: items and their reported Δ Temp.
measured_metric: Δ Temp (°C)

>  <molecule>
CC1(C)C[C@@H](NC(=O)Nc2cccc3c2C[C@@H](O)CC3)c2ccc(OC(F)(F)F)cc2O1 [Example 116]

>  <endpoint_value>
1.1

$$$$
>  <molecule>
O=C(Nc1cccc2c1C[C@@H](O)CC2)N[C@@H]1CC(CF)(CF)Oc2cc(Cl)ccc21 [Example 104]

>  <endpoint_value>
1.1

$$$$
>  <molecule>
O=C(Nc1cccc2c1C[C@@H](O)CC2)N[C@@H]1CC(CF)(CF)Oc2cc(C(F)(F)F)ccc21 [Example 112]

>  <endpoint_value>
1.4

$$$$
>  <molecule>
O=C(Nc1cccc2ccncc12)N[C@@H]1CC(CF)(CF)Oc2cc(C(F)(F)F)ccc21 [Example 93]

>  <endpoint_value>
1.1

$$$$
